Item-by-item account of pEC50
- Target: human β3 (Homo sapiens, UniProt P13945)
- Construct: And then full length of human β3 gene was cloned using this fragment as a probe; expressed in transfected cells; host or cells: CHO cells (Chinese hamster ovary), pcDNA3 vector
- Sequence (P13945 whole entry, the tested form may be a part): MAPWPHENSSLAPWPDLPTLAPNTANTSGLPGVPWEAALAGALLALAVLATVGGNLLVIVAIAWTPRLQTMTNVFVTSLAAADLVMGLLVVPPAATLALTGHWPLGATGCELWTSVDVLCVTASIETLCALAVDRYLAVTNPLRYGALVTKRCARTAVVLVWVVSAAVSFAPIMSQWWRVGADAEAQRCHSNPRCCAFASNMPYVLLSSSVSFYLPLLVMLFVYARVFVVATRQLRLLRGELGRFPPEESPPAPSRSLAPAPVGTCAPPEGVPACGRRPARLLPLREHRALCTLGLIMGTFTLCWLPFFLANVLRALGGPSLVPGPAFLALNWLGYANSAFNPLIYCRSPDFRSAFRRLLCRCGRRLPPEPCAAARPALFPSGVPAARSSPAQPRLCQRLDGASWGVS
- Protocol details: Human β3-agonist activity (cAMP in CHO cells transfected with human β3 gene)
- Assay type: cell-based
pEC50: −log10 of the molar value. Structures can show the parent of a compound that is named as a salt.
Property label: pEC50

| Compound | Recorded value |
| --- | --- |
| OC(CNCCOc1ccc2oc3ccccc3c2c1)c1ccccc1 (racemic) [Example 34, Hydrochloride] | 5.34 |
| COC(CNCCOc1ccc2c(c1)[nH]c1ccccc12)c1ccc(N)c(NS(C)(=O)=O)c1 (racemic) [Example 92, Hydrochloride] | 6.55 |
| CS(=O)(=O)Nc1cccc(C(O)CNCCOc2ccc3c(c2)[nH]c2ccccc23)c1.Cl (racemic) [Example 7, Hydrochloride] | 7.74 |
| CS(=O)(=O)Nc1cc([C@H](O)CNCCOc2ccc3c(c2)[nH]c2ccccc23)ccc1O [Example 13, Hydrochloride] | 8.57 |

----------
- Target: human β3 (Homo sapiens, UniProt P13945)
- Construct: And then full length of human β3 gene was cloned using this fragment as a probe; expressed in transfected cells; host or cells: CHO cells (Chinese hamster ovary), pcDNA3 vector
- Protocol details: Human β3-agonist activity (cAMP in CHO cells transfected with human β3 gene)
- Format: cell-based
- Recorded conditions: CHO; read-out: Intrinsic activity (%)
Counter-ions that a name gives are not always drawn.
Property label: Emax (%)

| Compound | Recorded value |
| --- | --- |
| CN(C)S(=O)(=O)Nc1cccc(C(O)CNCCOc2ccc3c(c2)[nH]c2ccccc23)c1 (racemic) [Example 48, Hydrochloride] | 73 |
| CS(=O)(=O)Nc1cc(O)cc(C(O)CNCCOc2ccc3c(c2)[nH]c2ccccc23)c1 (racemic) [Example 62, Hydrochloride] | 106 |
| O=S(=O)(Cc1ccccc1)Nc1cccc(C(O)CNCCOc2ccc3c(c2)[nH]c2ccccc23)c1 (racemic) [Example 8, Hydrochloride] | 47 |
| CS(=O)(=O)Nc1cccc(C(O)CNCCOc2ccc3c(c2)oc2ccccc23)c1 (racemic) [Example 9, Hydrochloride] | 85 |
| CS(=O)(=O)Nc1cccc([C@@H](O)CNCCOc2ccc3c(c2)oc2ccccc23)c1 [Example 70, Hydrochloride] | 76 |
| Nc1cccc(C(O)CNCCOc2ccc3c(c2)[nH]c2ccccc23)c1 (racemic) [Example 47, Hydrochloride] | 86 |
| O=CNc1cccc(C(O)CNCCOc2ccc3c(c2)[nH]c2ccccc23)c1 (racemic) [Example 17, Hydrochloride] | 53 |

----------
Item-by-item account of pEC50
- Tested on: canine adipocytes
- Protocol details: Lipolytic activity in canine fatty cell (glycerol release)
- Assay type: cell-based, dogs
- Recorded conditions: Canis lupus familiaris, Adipocyte, 1 h; glycerol release, canine adipocytes; read-out: ED50 (the source's name)
- Procedure: Lipolytic Activity in Canine Fatty Cell Adipose tissues in the omentum were collected from dogs and minced and washed. […] Each 300 μl of a culture medium containing the test compounds were added to these tubes and was held at 37° C. for 1 hour whith shaking. […] After centrifugation, the adipocytes were taken off with an aspirator, whereupon the glycerol was determined using F-KIT GLTCEROL (Behringer-Manheim).
pEC50: −log10 of the molar value. Structures can show the parent of a compound that is named as a salt.
Property label: pEC50

| Compound | Recorded value |
| --- | --- |
| CS(=O)(=O)Nc1cc(C(O)CNCCOc2ccc3c(c2)[nH]c2ccccc23)ccc1O.Cl (racemic) [Example 2, Hydrochloride] | 7.25 |
| CS(=O)(=O)Nc1cc(C(O)CNCCOc2ccc3c(c2)Cc2cc(N)ccc2-3)ccc1O (racemic) [Example 52, Hydrochloride] | 9.42 |
| COC(CNCCOc1ccc2c(c1)[nH]c1ccccc12)c1ccc(N)c(NS(C)(=O)=O)c1 (racemic) [Example 92, Hydrochloride] | 5.72 |
| CC(C)S(=O)(=O)Nc1cc(C(O)CNCCOc2ccc3c(c2)[nH]c2ccccc23)ccc1O (racemic) [Example 54, Hydrochloride] | 7.60 |
| CN(C)S(=O)(=O)Nc1cc(C(O)CNCCOc2ccc3c(c2)oc2ccccc23)ccc1O (racemic) [Example 43, Hydrochloride] | 8.40 |
| OC(CNCCOc1ccc2c(c1)[nH]c1ccccc12)c1ccccc1 (racemic) [Example 31, Hydrochloride] | 5.11 |

----------
Item-by-item account of pEC50
- Target: human β3 (Homo sapiens, UniProt P13945)
- Construct: And then full length of human β3 gene was cloned using this fragment as a probe; expressed in transfected cells; host or cells: CHO cells (Chinese hamster ovary), pcDNA3 vector
- Protocol details: Human β3-agonist activity (cAMP in CHO cells transfected with human β3 gene)
- Assay type: cell-based
pEC50: −log10 of the molar value. Structures can show the parent of a compound that is named as a salt.
Property label: pEC50

| Compound | Property label | Recorded value |
| --- | --- | --- |
| O[C@@H](CNCCOc1ccc2c(c1)[nH]c1ccccc12)c1ccccc1 [Example 32, Hydrochloride] | pEC50 | 5.80 |
| CS(=O)(=O)Nc1cccc([C@H](O)CNCCOc2ccc3c(c2)[nH]c2ccccc23)c1 [Example 15, Hydrochloride] | pEC50 | 6.96 |
| CS(=O)(=O)Nc1cc([C@@H](O)CNCCOc2ccc3c(c2)[nH]c2ccccc23)ccc1F [Example 77, Hydrochloride] | pEC50 | 7.68 |
| CS(=O)(=O)Nc1cc([C@H](O)CNCCOc2ccc3c(c2)[nH]c2ccccc23)ccc1Cl [Example 80, Hydrochloride] | pEC50 | 7.24 |

----------
- System: canine adipocytes
- Protocol details: Lipolytic activity in canine fatty cell (glycerol release)
- Format: cell-based, dogs
- Recorded conditions: Canis lupus familiaris, Adipocyte, 1 h; glycerol release, canine adipocytes; read-out: ED50 (the source's name)
pEC50: −log10 of the molar value. Structures can show the parent of a compound that is named as a salt.
Item-by-item account of pEC50

| Compound | pEC50 |
| --- | --- |
| CS(=O)(=O)Nc1cc([C@@H](O)CNCCOc2ccc3c(c2)oc2ccccc23)ccc1O [Example 69, Hydrochloride] | 9.19 |
| CS(=O)(=O)Nc1cccc(C(O)CNCCOc2ccc3c(c2)oc2ccccc23)c1 (racemic) [Example 9, Hydrochloride] | 6.60 |
| O[C@@H](CNCCOc1ccc2c(c1)[nH]c1ccccc12)c1ccccc1 [Example 32, Hydrochloride] | 6.54 |
| CN(C)S(=O)(=O)Nc1cc(C(O)CNCCOc2ccc3c(c2)[nH]c2ccccc23)ccc1O (racemic) [Example 25, Hydrochloride] | 6.29 |
| CC(C)NCC(O)c1ccc(O)c(O)c1 (stereo not shown) [Isoproterenol, reference compound] | 8.77 |
| CS(=O)(=O)Nc1cc([C@@H](O)CNCCOc2ccc3c(c2)sc2ccccc23)ccc1O [Example 72, Hydrochloride] | 9.27 |
| CN(C)S(=O)(=O)Nc1cc(C(O)CNCCOc2ccc3c(c2)sc2ccccc23)ccc1O (racemic) [Example 40, Hydrochloride] | 7.89 |

----------
- Target: human β3 (Homo sapiens)
- Construct: And then full length of human β3 gene was cloned using this fragment as a probe; expressed in transfected cells; host or cells: CHO cells (Chinese hamster ovary), pcDNA3 vector
- Protocol details: Human β3-agonist activity (cAMP in CHO cells transfected with human β3 gene)
- Format: cell-based
Structures can show the parent of a compound that is named as a salt.
Item-by-item account of EC50
Property label: EC50

| Compound | Recorded value |
| --- | --- |
| CS(=O)(=O)Nc1cc([C@H](O)CNCCOc2ccc3c(c2)[nH]c2ccccc23)ccc1F [Example 78, Hydrochloride] | 51 nM |
| CCN(CC)S(=O)(=O)Nc1cc(C(O)CNCCOc2ccc3c(c2)[nH]c2ccccc23)ccc1O (racemic) [Example 88, Hydrochloride] | 390 nM |
| CS(=O)(=O)Nc1cc(C(O)CNCCOc2ccc3c(c2)[nH]c2ccccc23)ccc1F (racemic) [Example 5, Hydrochloride] | 66 nM |
| CS(=O)(=O)Nc1cc(C(O)CNCCOc2ccc3c(c2)sc2ccccc23)ccc1Cl (racemic) [Example 58, Hydrochloride] | 550 nM |
| CN(C)S(=O)(=O)Nc1cc([C@H](O)CNCCOc2ccc3c(c2)oc2ccccc23)ccc1O [Example 76, Hydrochloride] | 520 nM |
| CN(Cc1ccccc1)S(=O)(=O)Nc1cc(C(O)CNCCOc2ccc3c(c2)[nH]c2ccccc23)ccc1O (racemic) [Example 87, Hydrochloride] | 84 nM |
| OC(CNCCOc1ccc2c(c1)[nH]c1ccccc12)c1ccccc1F (racemic) [Example 28, Hydrochloride] | 1000 nM |
| CS(=O)(=O)Nc1cc(C(O)CNCCOc2ccc3c(c2)[nH]c2ccccc23)ccc1OCc1ccccc1 (racemic) [Example 1, Hydrochloride] | 340 nM |
| CN(C)S(=O)(=O)Nc1cc(C(O)CNCCOc2ccc3c(c2)sc2ccccc23)ccc1O (racemic) [Example 40, Hydrochloride] | 200 nM |
| CS(=O)(=O)Nc1cccc([C@@H](O)CNCCOc2ccc3c(c2)[nH]c2ccccc23)c1 [Example 14, Hydrochloride] | 2.8 nM |
| CN(C)S(=O)(=O)Nc1cc([C@@H](O)CNCCOc2ccc3c(c2)[nH]c2ccccc23)ccc1O [Example 73, Hydrochloride] | 0.038 nM |
| COC(CNCCOc1ccc2c(c1)[nH]c1ccccc12)c1ccc(O)c(NS(C)(=O)=O)c1 (racemic) [Example 90, Hydrochloride] | 190 nM |
| CN(C)S(=O)(=O)Nc1cc([C@@H](O)CNCCOc2ccc3c(c2)oc2ccccc23)ccc1O [Example 75, Hydrochloride] | 88 nM |
